# Tgt: Epidermal growth factor receptor (Homo sapiens, UniProt P00533)
# Sequence (P00533 whole entry): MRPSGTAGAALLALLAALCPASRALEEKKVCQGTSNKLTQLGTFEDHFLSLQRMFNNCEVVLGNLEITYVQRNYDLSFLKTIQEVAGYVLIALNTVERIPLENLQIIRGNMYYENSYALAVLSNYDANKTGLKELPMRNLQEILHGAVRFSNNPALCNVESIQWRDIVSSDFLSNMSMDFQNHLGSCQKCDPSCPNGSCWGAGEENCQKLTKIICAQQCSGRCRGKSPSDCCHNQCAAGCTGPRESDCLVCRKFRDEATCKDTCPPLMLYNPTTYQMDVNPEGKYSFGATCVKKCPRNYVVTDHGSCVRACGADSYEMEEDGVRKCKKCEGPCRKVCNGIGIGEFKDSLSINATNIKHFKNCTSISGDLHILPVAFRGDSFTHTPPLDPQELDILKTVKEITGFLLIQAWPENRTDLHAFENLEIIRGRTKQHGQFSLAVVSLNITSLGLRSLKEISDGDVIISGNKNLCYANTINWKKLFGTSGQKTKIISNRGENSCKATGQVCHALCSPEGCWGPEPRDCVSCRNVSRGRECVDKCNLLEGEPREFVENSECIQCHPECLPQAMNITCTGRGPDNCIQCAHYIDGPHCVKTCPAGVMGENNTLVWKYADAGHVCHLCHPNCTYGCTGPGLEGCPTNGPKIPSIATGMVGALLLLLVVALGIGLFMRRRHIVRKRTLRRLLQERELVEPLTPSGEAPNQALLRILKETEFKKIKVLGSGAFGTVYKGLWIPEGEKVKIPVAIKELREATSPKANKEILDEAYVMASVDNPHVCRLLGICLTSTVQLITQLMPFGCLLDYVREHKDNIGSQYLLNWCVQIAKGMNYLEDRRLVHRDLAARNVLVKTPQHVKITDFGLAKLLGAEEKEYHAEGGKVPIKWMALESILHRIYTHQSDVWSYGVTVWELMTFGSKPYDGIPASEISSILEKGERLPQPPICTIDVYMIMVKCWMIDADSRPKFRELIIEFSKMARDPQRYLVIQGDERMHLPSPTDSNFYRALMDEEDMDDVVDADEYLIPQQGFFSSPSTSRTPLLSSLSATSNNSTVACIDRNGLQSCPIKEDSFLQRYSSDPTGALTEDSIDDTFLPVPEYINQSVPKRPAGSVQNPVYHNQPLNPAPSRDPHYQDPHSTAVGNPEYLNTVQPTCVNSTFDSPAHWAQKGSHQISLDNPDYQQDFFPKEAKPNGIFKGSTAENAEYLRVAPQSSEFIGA
# Measurement Description: Inhibition of wild type EGFR (unknown origin) by mobility shift assay
Reported IC50 values are given for each entry in this list.
Measured Quantity: IC50 (nM)

1. COc1cc(N(C)CCN(C)C)c(NC(=O)c2cnccn2)cc1Nc1nccc(-c2cn(C)c3ccccc23)n1 : 224
2. COc1cc(N(C)CCN(C)C)c(NC(=O)c2ncccn2)cc1Nc1nccc(-c2cn(C)c3ccccc23)n1 : 146
3. COc1cc(N(C)CCN(C)C)c(NC(=O)c2ccncn2)cc1Nc1nc(-c2cn(C)c3ccccc23)c2cccnc2n1 : 360

---

# Tested on: A549
# Measurement Description: Antiproliferative activity against human A549 cells assessed as cell viability after 72 hrs by MTT assay
# Format: functional, cell-based
# Condition: A549, 72 h
Below, each of the compounds is paired with its reported IC50 value.
Measured Quantity: IC50 (µM)

1) COc1cc(N(C)CCN(C)C)c(NC(=O)c2ccncc2)cc1Nc1nccc(-c2cn(C)c3ccccc23)n1 : 10.4
2) COc1cc(F)c(NC(=O)c2ccncc2)cc1Nc1nccc(-c2cn(C)c3ccccc23)n1 : 4.2
3) COc1cc(N(C)CCN(C)C)c(NC(=O)c2nccn2C)cc1Nc1nccc(-c2cn(C)c3ccccc23)n1 : 2.55
4) COc1ccc(C(=O)Nc2cc(Nc3nccc(-c4cn(C)c5ccccc45)n3)c(OC)cc2N(C)C)nc1 : 5.15
5) COc1cc(N(C)C)c(NC(=O)c2ccncn2)cc1Nc1nccc(-c2cn(C)c3ccccc23)n1 : 5.16
6) COc1cc(N(C)C)c(NC(=O)c2ccnc(Cl)c2)cc1Nc1nccc(-c2cn(C)c3ccccc23)n1 : 3.43
7) COc1cc(F)c(NC(=O)c2ccncc2OC)cc1Nc1nccc(-c2cn(C)c3ccccc23)n1 : 3.43
8) COc1cc(N(C)CCN(C)C)c(NC(=O)c2cnccn2)cc1Nc1nc(-c2cn(C)c3ccccc23)c2ccccc2n1 : 10.1
